- test.system: T1, self peptide on HLA-A*02:01 (human)
- T1 peptide: SLLMWITQC
- protocol.details: data from [96]; method not given; soluble, other
observed.property: pKd
Give bare numbers, as −log10 of the molar value.

What value of pKd has been recorded for this entry: 1G4 (TCR) alpha TRAV21*01 CDR3: AVRPTSGGSYIPT beta TRBV6-5*01 CDR3: ASSYVGNTGELF
4.88

Taken from paper PMC7793522.
